Each entry below carries its recorded pIC50.
System: UniProt P30530
Experiment Description: AXL autophosphorylation ELISA in A-172 cells
Condition Info: cellular, Gas6-stimulated, phospho-AXL ELISA
pIC50: −log10 of the molar value.

>>> experimental_result("COc1cc2ncnc(Oc3ccc(NC(=O)C4(C(=O)Nc5ccc(F)cc5)CC4)cc3Cl)c2nc1OC")
"7.00 to 8.00"
>>> experimental_result("O=C(Nc1ccc(F)cc1)C1(C(=O)Nc2ccc(Oc3ccnc4cc5c(nc34)OCCO5)c(Cl)c2)CC1")
"< 6.52"
>>> experimental_result("COc1nc2c(Oc3ccc(NC(=O)C4(C(=O)Nc5ccc(F)cc5)CC4)cc3F)ncnc2cc1OCCCN1CCOCC1")
"≥ 8.00"
>>> experimental_result("COCCOc1cc2ncnc(Oc3ccc(NC(=O)C4(C(=O)Nc5ccc(F)cc5)CC4)cc3F)c2nc1OC")
"≥ 8.00"
>>> experimental_result("COc1nc2c(Oc3ccc(NC(=O)C4(C(=O)Nc5ccc(F)cc5)CC4)cc3Cl)ncnc2cc1OCCCN1CCOCC1")
"≥ 8.00"
>>> experimental_result("COc1cnc2c(Oc3cc(F)c(NC(=O)C4(C(=O)Nc5ccc(F)cc5)CC4)cc3F)ccnc2c1")
"≥ 8.00"

# query: pIC50 of entry COc1cc2nccc(Oc3ccc(NC(=O)C4(C(=O)Nc5ccc(F)cc5)CC4)cc3)c2nc1-c1ccnn1C
< 6.52

Note, next up: COc1cc2ncnc(Oc3ccc(NC(=O)C4(C(=O)Nc5ccc(F)cc5)CC4)cc3)c2cc1C(=O)NC[C@@H]1CCCN1C(=O)OC(C)(C)C
< 6.52

Note, next up: COc1cc2nccc(Oc3ccc(NC(=O)C4(C(=O)Nc5ccc(F)cc5)CC4)cc3)c2nc1C(N)=O
6.52 to 7.00

Note, next up: COCCOc1cc2nccc(Oc3ccc(NC(=O)C4(C(=O)Nc5ccc(F)cc5)CC4)cc3F)c2nc1OC
≥ 8.00

Note, next up: COc1cc2ncnc(Oc3ccc(NC(=O)C4(C(=O)Nc5ccc(F)cc5)CC4)cc3)c2cc1C(=O)NC[C@H]1CCCN1C(=O)OC(C)(C)C
6.52 to 7.00

Note, next up: COc1cc2nccc(Oc3ccc(NC(=O)C4(C(=O)Nc5ccc(F)cc5)CC4)cc3Cl)c2nc1OC
7.00 to 8.00

Note, next up: Cn1cc(-c2cc3ncnc(Oc4ccc(NC(=O)C5(C(=O)Nc6ccc(F)cc6)CC5)cc4)c3cn2)cn1
7.00 to 8.00

Note, next up: COc1cc2nccc(Oc3ccc(NC(=O)C4(C(=O)Nc5ccc(F)cc5)CC4)cc3Cl)c2nc1C#N
6.52 to 7.00

Note, next up: COc1cc2ncnc(Oc3ccc(NC(=O)C4(C(=O)Nc5ccc(F)cc5)CC4)c(C)c3)c2nc1OC
6.52 to 7.00

Note, next up: CNC(=O)c1nc2c(Oc3ccc(NC(=O)C4(C(=O)Nc5ccc(F)cc5)CC4)cc3F)ccnc2cc1OC
6.52 to 7.00

Note, next up: COCCOc1cc2nccc(Oc3cc(F)c(NC(=O)C4(C(=O)Nc5ccc(F)cc5)CC4)cc3F)c2nc1OC
≥ 8.00

Note, next up: COCCOc1cc2ncnc(Oc3ccc(NC(=O)C4(C(=O)Nc5ccc(F)cc5)CC4)c(F)c3F)c2nc1OC
≥ 8.00

---

Each entry below carries its recorded IC50.
System: Met (Homo sapiens (Human), UniProt P08581)
Sequence (P08581 25-1390): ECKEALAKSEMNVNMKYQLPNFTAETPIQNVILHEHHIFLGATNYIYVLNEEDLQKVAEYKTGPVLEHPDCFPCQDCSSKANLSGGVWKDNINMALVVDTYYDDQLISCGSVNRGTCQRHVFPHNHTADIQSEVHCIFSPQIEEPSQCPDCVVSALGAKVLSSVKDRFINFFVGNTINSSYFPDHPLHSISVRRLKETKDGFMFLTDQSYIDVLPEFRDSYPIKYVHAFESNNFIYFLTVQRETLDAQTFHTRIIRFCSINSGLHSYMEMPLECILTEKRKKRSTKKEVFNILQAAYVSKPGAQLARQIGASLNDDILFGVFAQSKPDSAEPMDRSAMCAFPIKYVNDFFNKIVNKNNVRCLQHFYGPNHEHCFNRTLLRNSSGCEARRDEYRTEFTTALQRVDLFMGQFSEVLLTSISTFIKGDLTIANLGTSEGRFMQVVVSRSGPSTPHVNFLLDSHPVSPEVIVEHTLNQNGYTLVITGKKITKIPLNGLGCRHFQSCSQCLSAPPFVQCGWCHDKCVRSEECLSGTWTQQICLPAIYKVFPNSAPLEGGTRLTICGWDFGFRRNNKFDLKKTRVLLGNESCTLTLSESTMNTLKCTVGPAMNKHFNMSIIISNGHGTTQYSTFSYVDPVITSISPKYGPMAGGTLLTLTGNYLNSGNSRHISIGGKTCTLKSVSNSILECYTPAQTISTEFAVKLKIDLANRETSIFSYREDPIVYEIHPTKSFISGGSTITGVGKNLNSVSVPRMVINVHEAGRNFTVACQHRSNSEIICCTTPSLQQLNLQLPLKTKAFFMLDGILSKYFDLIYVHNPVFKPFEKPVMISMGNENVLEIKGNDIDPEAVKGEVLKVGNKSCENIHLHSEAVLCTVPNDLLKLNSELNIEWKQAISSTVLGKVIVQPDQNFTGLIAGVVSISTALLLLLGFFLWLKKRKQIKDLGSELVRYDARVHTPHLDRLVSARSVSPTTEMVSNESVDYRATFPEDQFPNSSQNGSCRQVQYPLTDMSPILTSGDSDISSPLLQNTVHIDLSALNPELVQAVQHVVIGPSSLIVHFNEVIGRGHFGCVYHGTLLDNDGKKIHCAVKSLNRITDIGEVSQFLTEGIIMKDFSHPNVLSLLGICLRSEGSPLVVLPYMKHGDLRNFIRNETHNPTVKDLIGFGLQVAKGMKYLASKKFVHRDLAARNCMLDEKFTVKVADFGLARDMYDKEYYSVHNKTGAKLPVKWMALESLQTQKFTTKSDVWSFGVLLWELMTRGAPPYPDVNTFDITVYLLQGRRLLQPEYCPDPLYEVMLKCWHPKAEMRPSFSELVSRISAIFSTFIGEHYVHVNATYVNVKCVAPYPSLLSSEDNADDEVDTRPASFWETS
Experiment Description: Met autophosphorylation ELISA in PC-3 cells
Format: cell-based
Condition Info: cellular, HGF-stimulated, phospho-Met ELISA, read-out: c-Met IC50

Reference set (6 entries):
>>> experimental_result("COc1cc2nccc(Oc3ccc(NC(=O)C4(C(=O)Nc5ccc(F)cc5)CC4)cc3Cl)c2nc1C#N")
"100 to 300 nM"
>>> experimental_result("COc1cc2ncnc(Oc3ccc(NC(=O)C4(C(=O)Nc5ccc(F)cc5)CC4)cc3)c2cn1")
"> 300 nM"
>>> experimental_result("COCCOc1cc2nccc(Oc3cc(F)c(NC(=O)C4(C(=O)Nc5ccc(F)cc5)CC4)cc3F)c2nc1OC")
"10 to 100 nM"
>>> experimental_result("COCCOc1cc2ncnc(Oc3ccc(NC(=O)C4(C(=O)Nc5ccc(F)cc5)CC4)cc3Cl)c2nc1OC")
"10 to 100 nM"
>>> experimental_result("COc1cc2ncnc(Oc3ccc(NC(=O)C4(C(=O)Nc5ccc(F)cc5)CC4)cc3)c2cc1C(=O)NC1COC1")
"100 to 300 nM"
>>> experimental_result("COc1cc2ncnc(Oc3ccc(NC(=O)C4(C(=O)Nc5ccc(F)cc5)CC4)cc3)c2cc1C(=O)NC[C@@H]1CCCN1C(=O)OC(C)(C)C")
"> 300 nM"

Continue with the next compound.
# query: IC50 of entry COc1cc2nccc(Oc3ccc(NC(=O)C4(C(=O)Nc5ccc(F)cc5)CC4)cc3)c2nc1C(=O)N(C)C
100 to 300 nM

---

System: AXL (Homo sapiens (Human))
Sequence (P30530 26-894): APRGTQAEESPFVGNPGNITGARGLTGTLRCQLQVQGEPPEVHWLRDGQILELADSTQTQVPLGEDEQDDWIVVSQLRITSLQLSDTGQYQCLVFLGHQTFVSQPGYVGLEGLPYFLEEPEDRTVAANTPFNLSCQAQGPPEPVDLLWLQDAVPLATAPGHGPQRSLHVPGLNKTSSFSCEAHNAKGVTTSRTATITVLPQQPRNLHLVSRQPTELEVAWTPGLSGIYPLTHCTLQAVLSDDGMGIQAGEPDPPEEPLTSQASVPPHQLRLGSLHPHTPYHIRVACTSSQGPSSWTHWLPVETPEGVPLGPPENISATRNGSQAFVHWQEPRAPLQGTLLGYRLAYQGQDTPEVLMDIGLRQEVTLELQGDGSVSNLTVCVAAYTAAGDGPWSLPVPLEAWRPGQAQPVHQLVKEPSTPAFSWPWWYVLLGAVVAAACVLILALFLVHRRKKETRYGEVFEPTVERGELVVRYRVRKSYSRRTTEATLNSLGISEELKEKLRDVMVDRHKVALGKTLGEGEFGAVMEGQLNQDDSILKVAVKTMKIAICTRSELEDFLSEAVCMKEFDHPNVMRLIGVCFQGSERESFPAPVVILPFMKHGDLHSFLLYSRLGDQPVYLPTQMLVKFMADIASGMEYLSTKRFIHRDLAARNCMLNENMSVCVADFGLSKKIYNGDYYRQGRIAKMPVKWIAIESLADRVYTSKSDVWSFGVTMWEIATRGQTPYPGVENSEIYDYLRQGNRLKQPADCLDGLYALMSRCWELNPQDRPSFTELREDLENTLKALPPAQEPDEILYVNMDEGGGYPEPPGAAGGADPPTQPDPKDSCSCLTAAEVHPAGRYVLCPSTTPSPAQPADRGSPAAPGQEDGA
Experiment Description: AXL autophosphorylation ELISA in A-172 cells
Condition Info: cellular, Gas6-stimulated, phospho-AXL ELISA
Recorded Metric: IC50

Reference set (8 entries):
>>> experimental_result("COc1cc2nccc(Oc3ccc(NC(=O)C4(C(=O)Nc5ccc(F)cc5)CC4)cc3)c2nc1C(=O)N(C)C")
"> 300 nM"
>>> experimental_result("COc1cc2ncnc(Oc3ccc(NC(=O)C4(C(=O)Nc5ccc(F)cc5)CC4)cc3)c2nc1OC")
"10 to 100 nM"
>>> experimental_result("COc1cc2nccc(Oc3ccc(NC(=O)C4(C(=O)Nc5ccc(F)cc5)CC4)cc3Cl)c2nc1C(N)=O")
"10 to 100 nM"
>>> experimental_result("COc1cc(NC(=O)C2(C(=O)Nc3ccc(F)cc3)CC2)ccc1Oc1ncnc2cc(OCCCN3CCOCC3)c(OC)nc12")
"100 to 300 nM"
>>> experimental_result("COc1cc2nccc(Oc3ccc(NC(=O)C4(C(=O)Nc5ccc(F)cc5)CC4)cc3F)c2nc1C#N")
"10 to 100 nM"
>>> experimental_result("COc1nc2c(Oc3cc(F)c(NC(=O)C4(C(=O)Nc5ccc(F)cc5)CC4)cc3F)ccnc2cc1OCCN1CCOCC1")
"≤ 10 nM"
>>> experimental_result("COc1cnc2c(Oc3cc(F)c(NC(=O)C4(C(=O)Nc5ccc(F)cc5)CC4)cc3F)ncnc2c1")
"10 to 100 nM"
>>> experimental_result("COc1cc2nccc(Oc3ccc(NC(=O)C4(C(=O)Nc5ccc(F)cc5)CC4)cc3F)c2nc1OC")
"≤ 10 nM"

# query: IC50 of entry COc1nc2c(Oc3cc(F)c(NC(=O)C4(C(=O)Nc5ccc(F)cc5)CC4)cc3F)ncnc2cc1OCCCN1CCOCC1
≤ 10 nM

Note, next up: COc1cc2nccc(Oc3ccc(NC(=O)C4(C(=O)Nc5ccc(F)cc5)CC4)cc3)c2nc1C#N
100 to 300 nM

Note, next up: COc1cc2ncnc(Oc3ccc(NC(=O)C4(C(=O)Nc5ccc(F)cc5)CC4)cc3)c2cc1C(=O)NC[C@H]1CCCN1
10 to 100 nM

Note, next up: COc1nc2c(Oc3ccc(NC(=O)C4(C(=O)Nc5ccc(F)cc5)CC4)cc3C#N)ncnc2cc1OCCCN1CCOCC1
10 to 100 nM

Note, next up: COCCOc1cc2nccc(Oc3ccc(NC(=O)C4(C(=O)Nc5ccc(F)cc5)CC4)cc3Cl)c2nc1OC
10 to 100 nM

Note, next up: O=C(Nc1ccc(F)cc1)C1(C(=O)Nc2ccc(Oc3ccnc4cc5c(nc34)OCCO5)cc2)CC1
> 300 nM

---

System: UniProt P08581
Experiment Description: Met autophosphorylation ELISA in PC-3 cells
Type: cell-based
Condition Info: cellular, HGF-stimulated, phospho-Met ELISA, read-out: c-Met IC50
Recorded Metric: IC50

Reference set (10 entries):
>>> experimental_result("Cn1cc(-c2ccc3ncnc(Oc4ccc(NC(=O)C5(C(=O)Nc6ccc(F)cc6)CC5)cc4)c3c2)cn1")
"> 0.3 µM"
>>> experimental_result("COc1cnc2c(Oc3cc(F)c(NC(=O)C4(C(=O)Nc5ccc(F)cc5)CC4)cc3F)ccnc2c1")
"0.01 to 0.1 µM"
>>> experimental_result("COc1nc2c(Oc3ccc(NC(=O)C4(C(=O)Nc5ccc(F)cc5)CC4)cc3C#N)ncnc2cc1OCCCN1CCOCC1")
"0.01 to 0.1 µM"
>>> experimental_result("CNC(=O)c1nc2c(Oc3ccc(NC(=O)C4(C(=O)Nc5ccc(F)cc5)CC4)cc3)ccnc2cc1OC")
"> 0.3 µM"
>>> experimental_result("COc1cc2nccc(Oc3ccc(NC(=O)C4(C(=O)Nc5ccc(F)cc5)CC4)cc3Cl)c2nc1C(N)=O")
"0.01 to 0.1 µM"
>>> experimental_result("COCCOc1cc2nccc(Oc3ccc(NC(=O)C4(C(=O)Nc5ccc(F)cc5)CC4)cc3F)c2nc1OC")
"≤ 0.01 µM"
>>> experimental_result("COc1cc2nccc(Oc3ccc(NC(=O)C4(C(=O)Nc5ccc(F)cc5)CC4)cc3)c2nc1-c1ccnn1C")
"> 0.3 µM"
>>> experimental_result("O=C(Nc1ccc(F)cc1)C1(C(=O)Nc2ccc(Oc3ccnc4cc5c(nc34)OCCO5)cc2)CC1")
"> 0.3 µM"
>>> experimental_result("COc1nc2c(Oc3ccc(NC(=O)C4(C(=O)Nc5ccc(F)cc5)CC4)c(F)c3F)ncnc2cc1OCCCN1CCOCC1")
"0.01 to 0.1 µM"
>>> experimental_result("COc1cc2nccc(Oc3ccc(NC(=O)C4(C(=O)Nc5ccc(F)cc5)CC4)cc3)c2nc1OC")
"0.01 to 0.1 µM"

# query: IC50 of entry COc1cc2ncnc(Oc3ccc(NC(=O)C4(C(=O)Nc5ccc(F)cc5)CC4)cc3)c2cc1C(=O)NC[C@H]1CCCN1
0.1 to 0.3 µM

Note, next up: COc1cc(NC(=O)C2(C(=O)Nc3ccc(F)cc3)CC2)ccc1Oc1ncnc2cc(OCCCN3CCOCC3)c(OC)nc12
> 0.3 µM

Note, next up: COc1cc2ncnc(Oc3ccc(NC(=O)C4(C(=O)Nc5ccc(F)cc5)CC4)cc3)c2cc1C(=O)NCCN1CCCC1
0.1 to 0.3 µM

Note, next up: COc1cc2ncnc(Oc3ccc(NC(=O)C4(C(=O)Nc5ccc(F)cc5)CC4)c(F)c3F)c2nc1OC
0.01 to 0.1 µM
